These measurements were taken from PubChem BioAssay AID463173.

Tested on: DeltatarO mutant
Test: S. aureus survival, RN4220 and DeltatarO strains – OD600, teichoic acid synthesis inhibitors, primary screen (AID 463173)
Details: S. aureus RN4220 wild type/DeltatarO growth, OD600, 18 h, active compounds read low, screened at 18.75 µg/mL (by protocol)
About 4,300 (8.3%) of roughly 52,000 compounds were called active. The entries come from a sample that favours actives as a whole.
Exercise: state measured survival for each of the compounds provided.
Numbers only, in %.

Cc1ccc(S(=O)(=O)Nc2ccc3c(c2)CCCN3C(=O)c2cccs2)cc1C	70
CCOC(=O)c1cc(-c2ccc(F)cc2)n(CC(=O)NC2CCCCCC2)c1C	76
Cc1ccc(NC(=O)CCS(=O)(=O)c2ccc3c(c2)oc(=O)n3C)c(Br)c1	80
Cc1ccc(CCNC(=O)CCCn2c(=O)c3ccccc3n(CC(=O)Nc3cc(Cl)ccc3C)c2=O)cc1	116
Cc1ccc(NC(=O)Cn2c(=O)n(Cc3nc(-c4ccccc4)no3)c(=O)c3cc4c(cc32)OCO4)cc1C	77

Hello, I would appreciate it if you could give survival for each entry below.
1. CCOC(=O)c1ccc(NC(=O)c2ccc3c(c2)CCN3S(=O)(=O)c2ccc(Cl)cc2)cc1
2. CN1C(=O)N(C)C2(CC1(C)C)CC(C)(C)N(C)C(=O)N2C
3. Cc1ccc2c(c1)c(=O)c1ccccc1n2CCCC(=O)Nc1ccc(F)cc1F

Reply:
64
102
49

Ask: State the recorded survival for this entry: `Cc1ccc(S(=O)(=O)Nc2ccc3c(c2)CCCN3C(=O)c2cccs2)cc1`
Reply: 75
